The measurements presented in this section are drawn from patent US10421754B2.

Provide the recorded IC50 for the entries that follow.
# assay_system: FGFR-1 (Homo sapiens, UniProt P11362)
# Sequence (P11362 22-822, species assumed): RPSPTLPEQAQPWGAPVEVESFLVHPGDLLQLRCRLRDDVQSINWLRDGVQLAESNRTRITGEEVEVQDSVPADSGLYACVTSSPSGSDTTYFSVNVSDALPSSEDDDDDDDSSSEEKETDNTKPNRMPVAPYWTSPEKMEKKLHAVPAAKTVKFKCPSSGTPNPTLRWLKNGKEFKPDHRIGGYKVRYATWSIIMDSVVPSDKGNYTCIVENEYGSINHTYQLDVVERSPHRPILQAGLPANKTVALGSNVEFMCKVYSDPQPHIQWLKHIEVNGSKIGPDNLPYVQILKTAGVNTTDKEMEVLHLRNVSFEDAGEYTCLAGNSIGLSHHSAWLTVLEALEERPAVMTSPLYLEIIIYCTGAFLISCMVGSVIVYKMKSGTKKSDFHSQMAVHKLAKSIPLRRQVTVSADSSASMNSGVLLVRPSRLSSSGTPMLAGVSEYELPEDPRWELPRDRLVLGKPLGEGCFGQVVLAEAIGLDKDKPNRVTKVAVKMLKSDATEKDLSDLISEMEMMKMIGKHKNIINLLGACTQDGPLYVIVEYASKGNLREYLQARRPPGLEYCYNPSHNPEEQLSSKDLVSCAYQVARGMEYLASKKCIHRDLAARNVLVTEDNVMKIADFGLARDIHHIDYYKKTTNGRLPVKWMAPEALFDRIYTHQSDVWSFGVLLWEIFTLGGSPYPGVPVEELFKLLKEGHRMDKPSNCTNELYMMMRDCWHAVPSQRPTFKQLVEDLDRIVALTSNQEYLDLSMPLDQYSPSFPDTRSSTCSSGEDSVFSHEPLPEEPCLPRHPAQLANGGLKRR
One number for each entry, in µM.

Please review the entries below; each comes with its answer.
compound	IC50, µM
COc1cc2c(Nc3ccc(Br)cc3F)ncnc2cc1OCCCN1CCCC1	0.0157
COc1cc2c(Nc3ccc(Br)cc3F)ncnc2cc1OCCCN(C)C	0.0246
COc1cc2c(Nc3ccc(F)c(Cl)c3)ncnc2cc1OCCCCN1CCCC1	0.0284

Take each entry in turn and give its IC50.
1. COc1cc2c(Nc3ccc(F)c(Cl)c3)ncnc2cc1OCCCCN(C)C
2. COc1cc2c(Nc3ccc(Br)cc3F)ncnc2cc1OCCCN1CCCCC1 [Compound 45, reference compound]

output:
[0.0277, 0.0416]

* * *

# Tested on: H292
# experimental_protocol: In vitro cell experiment (MTT), H292
# Format: cell-based
# condition_parameters: NCI-H292, 72 h, human lung carcinoma cells (EGFR1 overexpressing)
Can you tell me IC50 for the items I'm about to list?
Numbers only, in nM.

molecule	assay_metric	experimental_value
COc1cc2c(Nc3ccc(Br)cc3F)ncnc2cc1OCCCN(C)C [Compound 29]	IC50	45.6
COc1cc2c(Nc3ccc(Br)cc3F)ncnc2cc1OCCCN1CCCCC1 [Compound 45, reference compound]	IC50	105

Batch of 3 molecules: report IC50 for each.
1. COc1cc2c(Nc3ccc(F)c(Cl)c3)ncnc2cc1OCCCCC(N)=O [Compound 41]
2. COc1cc2c(Nc3ccc(Br)cc3F)ncnc2cc1OCCCCCC(N)=O [Compound 6]
3. COc1cc2c(Nc3ccc(Br)cc3F)ncnc2cc1OCCCn1ccnc1 [Compound 14]

output:
[89.9, 46.9, 37.4]

* * *

For each of the molecules below, state its IC50.
# Test system: TT
# experimental_protocol: In vitro cell experiment (MTT), TT
# Format: cell-based
# condition_parameters: 72 h, human thyroid carcinoma cells (RET C634W mutation)

In the examples that follow, each entry is paired with its recorded IC50.
molecule	experimental_value
COc1cc2c(Nc3ccc(Br)cc3F)ncnc2cc1OCCCCN(C)C [Compound 28]	118 nM
COc1cc2c(Nc3ccc(Br)cc3F)ncnc2cc1OCCCCN1CCCC1 [Compound 30]	126 nM
COc1cc2c(Nc3ccc(F)c(Cl)c3)ncnc2cc1OCCCN1CCCC1 [Compound 39]	186 nM
COc1cc2c(Nc3ccc(Br)cc3F)ncnc2cc1OCCCN(C)C [Compound 29]	127 nM
COc1cc2c(Nc3ccc(Br)cc3F)ncnc2cc1OCC1CCN(C)CC1 [Vandetanib, reference compound]	192 nM

Field: IC50. Fill in for each record below.
1. COc1cc2c(Nc3ccc(F)c(Cl)c3)ncnc2cc1OCCCCN1CCCC1 [Compound 40]
2. COc1cc2c(Nc3ccc(F)c(Cl)c3)ncnc2cc1OCCCN(C)C [Compound 38]
3. COc1cc2c(Nc3ccc(F)c(Cl)c3)ncnc2cc1OCCCCN(C)C [Compound 37]

output:
93 nM
115 nM
134 nM

// input: 3 molecules below; output: IC50 for each
1. COc1cc2c(Nc3ccc(Br)cc3F)ncnc2cc1OCCCN1CCCC1 [Compound 19]
2. COc1cc2c(Nc3ccc(Cl)cc3F)ncnc2cc1OCCCN1CCCC1 [Compound 44, reference compound]
3. COc1cc2c(Nc3ccc(Br)cc3F)ncnc2cc1OCCCN1CCCCC1 [Compound 45, reference compound]

output:
["110 nM", "257 nM", "314 nM"]

* * *

# assay_system: FLT-1 (Homo sapiens)
# Sequence (P17948 27-1338): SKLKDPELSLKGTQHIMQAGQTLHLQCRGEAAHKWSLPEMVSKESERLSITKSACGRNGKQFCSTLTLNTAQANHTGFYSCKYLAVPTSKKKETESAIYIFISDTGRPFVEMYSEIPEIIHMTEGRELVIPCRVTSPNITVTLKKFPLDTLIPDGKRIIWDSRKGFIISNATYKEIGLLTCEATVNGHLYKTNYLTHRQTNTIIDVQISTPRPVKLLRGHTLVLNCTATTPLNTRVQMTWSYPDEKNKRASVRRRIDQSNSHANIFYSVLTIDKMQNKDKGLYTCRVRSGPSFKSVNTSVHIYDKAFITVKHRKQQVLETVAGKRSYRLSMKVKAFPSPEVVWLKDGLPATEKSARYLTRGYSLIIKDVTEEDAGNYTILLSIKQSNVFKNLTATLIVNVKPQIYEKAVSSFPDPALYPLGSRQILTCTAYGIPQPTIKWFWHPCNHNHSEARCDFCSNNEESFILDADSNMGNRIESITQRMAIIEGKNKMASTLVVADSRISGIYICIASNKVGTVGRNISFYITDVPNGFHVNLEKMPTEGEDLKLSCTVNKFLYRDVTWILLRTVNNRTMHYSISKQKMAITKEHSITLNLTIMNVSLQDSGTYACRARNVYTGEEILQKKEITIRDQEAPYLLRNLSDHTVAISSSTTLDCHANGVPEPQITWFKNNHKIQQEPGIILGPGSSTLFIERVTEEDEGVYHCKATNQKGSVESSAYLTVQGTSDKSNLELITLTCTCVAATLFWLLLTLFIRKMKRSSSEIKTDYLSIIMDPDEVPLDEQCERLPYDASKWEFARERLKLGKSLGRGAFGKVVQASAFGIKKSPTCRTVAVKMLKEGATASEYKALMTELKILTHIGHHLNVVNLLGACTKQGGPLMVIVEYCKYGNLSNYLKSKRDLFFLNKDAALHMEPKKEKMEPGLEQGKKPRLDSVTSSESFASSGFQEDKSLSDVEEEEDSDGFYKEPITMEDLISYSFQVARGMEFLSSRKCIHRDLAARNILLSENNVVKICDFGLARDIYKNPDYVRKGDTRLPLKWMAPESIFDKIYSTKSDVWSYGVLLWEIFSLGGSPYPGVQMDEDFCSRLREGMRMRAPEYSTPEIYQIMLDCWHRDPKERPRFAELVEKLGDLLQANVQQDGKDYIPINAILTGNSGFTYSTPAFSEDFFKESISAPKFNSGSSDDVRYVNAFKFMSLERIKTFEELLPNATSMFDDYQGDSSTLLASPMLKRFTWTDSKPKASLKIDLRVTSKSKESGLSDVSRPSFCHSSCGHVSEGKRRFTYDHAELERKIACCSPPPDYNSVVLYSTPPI
For each entry below, report its IC50 value.
Answers are plain numbers, in nM.

compound	IC50 / nM
COc1cc2c(Nc3ccc(F)c(Cl)c3)ncnc2cc1OCCCCN1CCCC1	39.8
COc1cc2c(Nc3ccc(F)c(Cl)c3)ncnc2cc1OCCCN1CCCC1	34.6
COc1cc2c(Nc3ccc(F)c(Cl)c3)ncnc2cc1OCCCCN(C)C	30.4
COc1cc2c(Nc3ccc(Br)cc3F)ncnc2cc1OCCCN(C)C	30.8
COc1cc2c(Nc3ccc(Br)cc3F)ncnc2cc1OCCCCN1CCCC1	25.9

Need IC50 for each of these compounds.
1. COc1cc2c(Nc3ccc(Br)cc3F)ncnc2cc1OCCCCN(C)C
2. COc1cc2c(Nc3ccc(F)c(Cl)c3)ncnc2cc1OCCCN(C)C
3. COc1cc2c(Nc3ccc(Br)cc3F)ncnc2cc1OCCCN1CCCCC1 [Compound 45, reference compound]
4. COc1cc2c(Nc3ccc(Br)cc3F)ncnc2cc1OCCCN1CCCC1
5. COc1cc2c(Nc3ccc(Cl)cc3F)ncnc2cc1OCCCN1CCCC1 [Compound 44, reference compound]

output:
1: 27.4; 2: 35.6; 3: 50.1; 4: 25.6; 5: 51.2

* * *

# BTK (Homo sapiens): pIC50 values follow
# Sequence (Q06187 whole entry, species assumed): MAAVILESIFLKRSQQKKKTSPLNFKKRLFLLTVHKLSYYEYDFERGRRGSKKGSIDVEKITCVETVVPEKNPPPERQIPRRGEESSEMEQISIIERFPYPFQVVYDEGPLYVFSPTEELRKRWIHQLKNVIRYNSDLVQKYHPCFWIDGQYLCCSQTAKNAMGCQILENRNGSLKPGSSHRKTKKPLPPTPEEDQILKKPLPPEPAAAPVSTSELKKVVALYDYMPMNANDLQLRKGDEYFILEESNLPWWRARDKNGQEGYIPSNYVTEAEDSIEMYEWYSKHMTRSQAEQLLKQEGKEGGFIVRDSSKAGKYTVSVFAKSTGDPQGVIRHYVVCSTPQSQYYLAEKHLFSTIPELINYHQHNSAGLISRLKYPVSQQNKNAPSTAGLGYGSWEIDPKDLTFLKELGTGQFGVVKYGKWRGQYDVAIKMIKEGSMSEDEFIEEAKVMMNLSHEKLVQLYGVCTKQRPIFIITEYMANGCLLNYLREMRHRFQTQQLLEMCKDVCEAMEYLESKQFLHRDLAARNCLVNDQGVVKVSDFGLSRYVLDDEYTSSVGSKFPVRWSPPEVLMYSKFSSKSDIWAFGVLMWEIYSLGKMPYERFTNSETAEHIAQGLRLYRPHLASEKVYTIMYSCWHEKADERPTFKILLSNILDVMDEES
Give bare numbers, as −log10 of the molar value.

Solved cases below.
molecule	assay_system	experimental_value
COc1cc2c(Nc3ccc(F)c(Cl)c3)ncnc2cc1OCCCN(C)C	BTK (Homo sapiens)	6.49
COc1cc2c(Nc3ccc(F)c(Cl)c3)ncnc2cc1OCCCCN1CCCC1	BTK (Homo sapiens)	6.51
COc1cc2c(Nc3ccc(Cl)cc3F)ncnc2cc1OCCCN1CCCC1 [Compound 44, reference compound]	BTK (Homo sapiens)	6.37
COc1cc2c(Nc3ccc(F)c(Cl)c3)ncnc2cc1OCCCN1CCCC1	BTK (Homo sapiens)	6.53

For each of the molecules below, note its pIC50.
1. COc1cc2c(Nc3ccc(Br)cc3F)ncnc2cc1OCCCN1CCCCC1 [Compound 45, reference compound]
2. COc1cc2c(Nc3ccc(Br)cc3F)ncnc2cc1OCCCCN(C)C
3. COc1cc2c(Nc3ccc(Br)cc3F)ncnc2cc1OCCCCN1CCCC1
4. COc1cc2c(Nc3ccc(F)c(Cl)c3)ncnc2cc1OCCCCN(C)C
5. COc1cc2c(Nc3ccc(Br)cc3F)ncnc2cc1OCCCN(C)C
6. COc1cc2c(Nc3ccc(Br)cc3F)ncnc2cc1OCCCN1CCCC1

output:
1: 6.38; 2: 6.56; 3: 6.58; 4: 6.51; 5: 6.59; 6: 6.66

* * *

# Test system: A498
# experimental_protocol: In vitro cell experiment (MTT), A498
# Type: cell-based
# condition_parameters: 72 h, human renal carcinoma cells
# Description: Cells in logarithmic growth phase were seeded at a certain density in a 96-well plate (200 μL/well). […] Finally the optical density (OD) of each sample was measured in a micro-plate reader at 550 nm. Cell inhibition rate was calculated according to the following formula: […] According to cell inhibition rates, IC50 was calculated by LOGIT method. The experiments were repeated twice and the data was expressed as means±SD.
assay_metric: IC50 (µM)
One number for each entry, in µM.

Please review the following examples before continuing.
compound	experimental_value
COc1cc2c(Nc3ccc(F)c(Cl)c3)ncnc2cc1OCCCN(C)C [Compound 38]	2.26
COc1cc2c(Nc3ccc(Br)cc3F)ncnc2cc1OCCCCN(C)C [Compound 28]	2.27
COc1cc2c(Nc3ccc(Br)cc3F)ncnc2cc1OCCCCN1CCCC1 [Compound 30]	2.88
COc1cc2c(Nc3ccc(Br)cc3F)ncnc2cc1OCCCN1CCCCC1 [Compound 45, reference compound]	3.15
COc1cc2c(Nc3ccc(Br)cc3F)ncnc2cc1OCC1CCN(C)CC1 [Vandetanib, reference compound]	2.96
COc1cc2c(Nc3ccc(F)c(Cl)c3)ncnc2cc1OCCCN1CCCC1 [Compound 39]	2.31

Items follow; give IC50 for each.
1. COc1cc2c(Nc3ccc(Br)cc3F)ncnc2cc1OCCCn1ccnc1 [Compound 14]
2. COc1cc2c(Nc3ccc(Br)cc3F)ncnc2cc1OCCCN1CCCC1 [Compound 19]
3. COc1cc2c(Nc3ccc(Br)cc3F)ncnc2cc1OCCCN(C)C [Compound 29]
4. COc1cc2c(Nc3ccc(F)c(Cl)c3)ncnc2cc1OCCCCN(C)C [Compound 37]
5. COc1cc2c(Nc3ccc(F)c(Cl)c3)ncnc2cc1OCCCCN1CCCC1 [Compound 40]
6. COc1cc2c(Nc3ccc(Cl)cc3F)ncnc2cc1OCCCN1CCCC1 [Compound 44, reference compound]

output:
1: 2.73; 2: 2.06; 3: 2.36; 4: 2.16; 5: 2.46; 6: 3.05

* * *

Assign IC50 to each entry below.
# Tested on: H292
# experimental_protocol: In vitro cell experiment (MTT), H292
# Format: cell-based
# condition_parameters: NCI-H292, 72 h, human lung carcinoma cells (EGFR1 overexpressing)
Give bare numbers, in µM.

compound	unit_label	IC50
COc1cc2c(Nc3ccc(Br)cc3F)ncnc2cc1OCCn1ccnc1	µM	0.0908
COc1cc2c(Nc3ccc(F)c(Cl)c3)ncnc2cc1OCCCCN1CCCC1	µM	0.0564
COc1cc2c(Nc3ccc(F)c(Cl)c3)ncnc2cc1OCc1cnc(C)s1	µM	0.0783
COc1cc2c(Nc3ccc(F)c(Cl)c3)ncnc2cc1OCCCCCC(N)=O	µM	0.0818
COc1cc2c(Nc3ccc(Br)cc3F)ncnc2cc1OCCN1CCCC1	µM	0.0463
COc1cc2c(Nc3ccc(Br)cc3F)ncnc2cc1OCC1CCN(C)CC1 [Vandetanib, reference compound]	µM	0.167
COc1cc2c(Nc3ccc(Br)cc3F)ncnc2cc1OCCCN1CCCC1	µM	0.0382
COc1cc2c(Nc3ccc(Br)cc3F)ncnc2cc1OCCCCN(C)C	µM	0.0666

// batch mode: one IC50 value per listed entry
1. COc1cc2c(Nc3ccc(F)c(Cl)c3)ncnc2cc1OCCCCN(C)C
2. COc1cc2c(Nc3ccc(Cl)cc3F)ncnc2cc1OCCCN1CCCC1 [Compound 44, reference compound]

output:
1: 0.0396; 2: 0.124

Return reported IC50 values for all items listed beneath this line.
1. COc1cc2c(Nc3ccc(Br)cc3F)ncnc2cc1OCCCCN1CCCC1
2. COc1cc2c(Nc3ccc(Br)cc3F)ncnc2cc1OCCCCC(N)=O
3. COc1cc2c(Nc3ccc(F)c(Cl)c3)ncnc2cc1OCCCN1CCCC1
4. COc1cc2c(Nc3ccc(F)c(Cl)c3)ncnc2cc1OCCCN(C)C

output:
1: 0.0432; 2: 0.0734; 3: 0.0457; 4: 0.0452
